meta.source: patent US20160264649A1

Molecular target: HIV-1 Env of isolate MGRM-F1-006 (subtype F) (HIV-1)
Test: cell-based or functional assay
OBSERVATION_TYPE: IC50 (neutralization) (µg/mL)
Only the number, expressed in µg/mL, is required.

PGT-128 (antibody, V domains shown) VH: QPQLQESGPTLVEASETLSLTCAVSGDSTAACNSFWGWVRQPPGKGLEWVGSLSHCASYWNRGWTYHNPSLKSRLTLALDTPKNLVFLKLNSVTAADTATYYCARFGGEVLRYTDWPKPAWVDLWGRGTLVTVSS VL: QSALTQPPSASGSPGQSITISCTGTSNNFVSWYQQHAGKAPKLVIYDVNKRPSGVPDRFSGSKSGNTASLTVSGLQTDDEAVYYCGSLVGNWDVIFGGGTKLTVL : 0.763

Note: attention shifts to another entry.
Ask: Return reported IC50 (neutralization); argument: PGT-123 (antibody, V domains shown) VH: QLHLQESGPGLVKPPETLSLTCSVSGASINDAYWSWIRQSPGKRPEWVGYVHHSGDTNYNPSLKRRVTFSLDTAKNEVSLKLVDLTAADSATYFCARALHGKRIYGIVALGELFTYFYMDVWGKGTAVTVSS VL: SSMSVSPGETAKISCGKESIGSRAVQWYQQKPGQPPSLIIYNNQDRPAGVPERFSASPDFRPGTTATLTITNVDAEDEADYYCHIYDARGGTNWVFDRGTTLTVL
Result: 6.89
